Test: MRT in male Sprague-Dawley rat at 10 mg/kg, po measured at 5 to 1440 mins by LC-MS/MS analysis
Format: ADME, organism-based
Conditions: in vivo, time 5-1440 min
ENDPOINT NAME: MRT (h)

1) O=C1Nc2c(cccc2-c2ccc(NC3CCOCC3)cc2)/C1=C/c1ccnc2ccccc12 : 2.98

----------
System: RAW264.7
Assay: Anti-inflammatory activity in mouse RAW264.7 cells assessed as inhibition of LPS-induced TNF-alpha production at 5 uM preincubated for 1 hr followed by LPS addition and measured after 24 hrs by ELISA relative to control
Type: functional
Parameters: scale not given: the % may be the effect or the level left
Conditions: time 25 hrs
Measured Activity by item
ENDPOINT NAME: Activity

1) O=C(Nc1nccc2ccccc12)c1cccc(-c2ccc(CN3CCOCC3)cc2)c1 : 67.7%
2) CC(=O)c1cccc(NC(=O)c2cccc(-c3ccc(CN4CCOCC4)cc3)c2)c1 : 50.3%
3) O=C(Nc1ccc(O)cc1)c1cccc(-c2ccc(CN3CCOCC3)cc2)c1 : 40.8%
4) O=C1Nc2c(cccc2-c2ccc(CN3CCNCC3)cc2)/C1=C/c1ccnc2ccccc12 : 68.7%
5) Nc1c(C(=O)Nc2nccc3ccccc23)cccc1-c1ccc(CN2CCOCC2)cc1 : 33.3%
6) O=C(Nc1cccc(O)c1)c1cccc(-c2ccc(CN3CCOCC3)cc2)c1 : 62.2%
7) O=C1Nc2c(cccc2-c2ccc(CN3CCOCC3)cc2)/C1=C/c1ccnc2ccccc12 : 72.2%
8) O=C1Nc2c(cccc2-c2ccc3[nH]ccc3c2)/C1=C/c1ccnc2ccccc12 : 43.2%
9) O=C1Nc2c(cccc2-c2ccc(C(=O)N3CCOCC3)cc2)/C1=C/c1ccnc2ccccc12 : 58.1%
10) O=C(Nc1ccc2ccccc2c1)c1cccc(-c2ccc(CN3CCOCC3)cc2)c1 : 63.2%
11) O=C(Nc1cncc2ccccc12)c1cccc(-c2ccc(CN3CCOCC3)cc2)c1 : 62.5%

----------
Experiment: Cmax in male Sprague-Dawley rat at 10 mg/kg, po measured at 5 to 1440 mins by LC-MS/MS analysis
Format: ADME, organism-based
Settings: in vivo, time 5-1440 min
ENDPOINT NAME: Cmax (ng/mL)

1. O=C1Nc2c(cccc2-c2ccc(NC3CCOCC3)cc2)/C1=C/c1ccnc2ccccc12 : 158

----------
Target: Dipeptidyl peptidase 1 (Homo sapiens, UniProt P53634)
Sequence (P53634 25-134 limits assumed): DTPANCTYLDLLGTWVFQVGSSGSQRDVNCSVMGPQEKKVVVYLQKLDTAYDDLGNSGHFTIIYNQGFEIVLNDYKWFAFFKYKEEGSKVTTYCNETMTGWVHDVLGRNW
Sequence (P53634 231-394 limits assumed): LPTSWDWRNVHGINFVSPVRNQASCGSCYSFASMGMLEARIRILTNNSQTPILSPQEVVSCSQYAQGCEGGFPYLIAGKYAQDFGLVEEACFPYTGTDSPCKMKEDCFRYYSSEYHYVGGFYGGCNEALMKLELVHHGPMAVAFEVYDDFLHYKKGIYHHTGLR
Sequence (P53634 395-463 limits assumed): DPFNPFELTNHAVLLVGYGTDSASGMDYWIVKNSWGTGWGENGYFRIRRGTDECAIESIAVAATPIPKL
Test: Inhibition of human recombinant Cathepsin C using Gly-Phe-AFC as substrate preincubated for 3 hrs followed by substrate addition and measured after 1 hr by fluorescence based multifunctional microplate reader analysis
pIC50: −log10 of the molar value.
# pIC50 listing for each entry below
ENDPOINT NAME: pIC50

1. O=C(Nc1cncc2ccccc12)c1cccc(-c2ccc(CN3CCOCC3)cc2)c1 : 6.60
2. O=C1Nc2c(cccc2-c2ccc3[nH]ccc3c2)/C1=C/c1ccnc2ccccc12 : 6.71
3. Nc1c(C(=O)Nc2ccc3ccccc3c2)cccc1-c1ccc(CN2CCOCC2)cc1 : 6.51
4. Nc1c(C(=O)Nc2cccc3ccccc23)cccc1-c1ccc(CN2CCOCC2)cc1 : 6.56
5. O=C(Nc1nccc2ccccc12)c1cccc(-c2ccc(CN3CCOCC3)cc2)n1 : 6.61
6. CC(=O)Nc1ccc(NC(=O)c2cccc(-c3ccc(CN4CCOCC4)cc3)c2)cc1 : 6.11
7. COc1ccc(NC(=O)c2cccc(-c3ccc(CN4CCOCC4)cc3)c2)cc1 : 6.14
8. NC(=O)c1ccc(-c2cccc3c2NC(=O)/C3=C\c2ccnc3ccccc23)cc1 : 6.54
9. O=C(Nc1cccc(O)c1)c1cccc(-c2ccc(CN3CCOCC3)cc2)c1 : 6.58
10. O=C(Nc1cccc2ccccc12)c1cccc(-c2ccc(CN3CCOCC3)cc2)c1 : 6.58
